Molecular target: affinity purified antibody IHuP#002-001-ABL-08
Assay: ECL bridging/competition assay, 10 ug/ml ISV, 400 ng/ml antibody, labelled SEQ ID NO:1
Assay Readout: % reduction (%)

I: Example 1c: (A14P, R39Q, K83R,T91Y, Q108L) (VHH) VHH: EVQLVESGGGLVQPGGSLRLSCAASGRTFNNYAMGWFRQAPGKEREFVAAITRSGVRSGVSAIYGDSVKDRFTISRDNAKNTLYLQMNSLRPEDTAVYYCAASAIGSGALRRFEYDYSGQGTLVTVSS
II: Example 1C: wildtype (VHH) VHH: EVQLVESGGGLVQAGGSLRLSCAASGRTFNNYAMGWFRRAPGKEREFVAAITRSGVRSGVSAIYGDSVKDRFTISRDNAKNTLYLQMNSLKPEDTAVYTCAASAIGSGALRRFEYDYSGQGTQVTVSS
III: Example 1C: (A14P, R39Q, K83R, T91Y, Q108L)-3A (VHH) VHH: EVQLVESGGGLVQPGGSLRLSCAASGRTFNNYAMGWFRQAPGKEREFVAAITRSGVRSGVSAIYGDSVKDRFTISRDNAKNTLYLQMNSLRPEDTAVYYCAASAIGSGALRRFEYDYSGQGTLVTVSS
IV: Example 1C: (Q108L) (VHH) VHH: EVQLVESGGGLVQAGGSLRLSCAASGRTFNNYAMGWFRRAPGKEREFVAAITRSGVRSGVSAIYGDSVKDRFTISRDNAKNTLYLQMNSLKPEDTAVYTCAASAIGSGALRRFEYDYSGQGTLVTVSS
Form: Sort by [% reduction] Order [ ascending ] # output: labels, in the requested order
III, II, IV, I

I: Example 1C: (A14P) (VHH) VHH: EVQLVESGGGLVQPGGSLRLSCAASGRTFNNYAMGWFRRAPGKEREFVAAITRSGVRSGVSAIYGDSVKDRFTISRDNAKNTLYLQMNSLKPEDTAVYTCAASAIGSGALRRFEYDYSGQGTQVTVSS
II: Example 1C: (A14P, R39Q, K83R, T91Y, Q108L)-QA (VHH) VHH: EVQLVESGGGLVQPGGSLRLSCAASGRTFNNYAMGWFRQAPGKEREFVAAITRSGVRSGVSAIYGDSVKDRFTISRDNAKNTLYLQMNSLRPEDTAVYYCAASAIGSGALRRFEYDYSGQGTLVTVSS
Would you kindly point out which of I and II has the smaller % reduction figure? State the label of the item chosen.
II

P: Example 1C: (A14P, K83R, Q108L) (VHH) VHH: EVQLVESGGGLVQPGGSLRLSCAASGRTFNNYAMGWFRRAPGKEREFVAAITRSGVRSGVSAIYGDSVKDRFTISRDNAKNTLYLQMNSLRPEDTAVYTCAASAIGSGALRRFEYDYSGQGTLVTVSS
Q: Example 1C: (K83R) (VHH) VHH: EVQLVESGGGLVQAGGSLRLSCAASGRTFNNYAMGWFRRAPGKEREFVAAITRSGVRSGVSAIYGDSVKDRFTISRDNAKNTLYLQMNSLRPEDTAVYTCAASAIGSGALRRFEYDYSGQGTQVTVSS
Kindly identify the item with the lower % reduction figure among these two: P and Q When you have decided, please share the label of that item.
Q

Cited source: patent US20230242620A1
